assay: NCI Yeast Anticancer Drug Screen. Data for the rad50 strain (AID 155);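 note: 0% = growth of vehicle-only cultures of the same strain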; conditions: S. cerevisiae rad50 strain growth inhibition; at 50.0 µM; active compounds read high
About 79,000 compounds went through this panel and 15% of them were active in at least one assay; those are over-represented in the sample as a whole.
So I've got a bunch of compounds here, and I need their growth inhibition values.
One number for each entry, in %.

In the examples that follow, each entry is paired with its recorded growth inhibition.
COMPOUND: O=C1c2ccccc2C(=O)N1Cc1ccc(CN2C(=O)c3ccccc3C2=O)cc1
EXPERIMENTAL_READOUT: growth inhibition
UNITS_TEXT: %
NUMERIC_VALUE: -9
//
COMPOUND: C=C1CCC(OC(C)=O)C2(C)C(OC(C)=O)CC3OC3(C)C2C(OC(C)=O)C2C(C)C(=O)OC2C1Cl (stereo not given)
EXPERIMENTAL_READOUT: growth inhibition
UNITS_TEXT: %
NUMERIC_VALUE: 3.2

# per-item lookup of growth inhibition; items listed below
1. CCc1c2ccccc2cc2ccccc12
2. O=C(/C=C\c1ccccc1Cl)/C=C/c1ccccc1Cl
3. CN(C)c1ccc([Si](c2ccc(N(C)C)cc2)c2ccc(N(C)C)cc2)cc1

1: -1; 2: 11.2; 3: -18.5

* * *

So I've got a bunch of molecules here, and I need their growth inhibition values.
test: NCI Yeast Anticancer Drug Screen. Data for the mlh1 rad18 strain (AID 175); conditions: S. cerevisiae mlh1 rad18 strain growth inhibition; at 50.0 µM; active compounds read high
About 79,000 compounds went through this panel and 15% of them were active in at least one assay; those are over-represented in the sample as a whole.
Give bare numbers, in %.

MOLECULE: c1ccc(-n2nc3ccc4nonc4c3n2)cc1
growth inhibition [%]: -1.55
//
MOLECULE: COC(=O)/C(C#N)=C/Sc1ccccc1
growth inhibition [%]: -7.7
//
MOLECULE: OCC(O)COc1ccccc1F (configuration not stated)
growth inhibition [%]: 10.8
//
MOLECULE: C1C[O][Ge]2([O]1)[O]CC[O]2
growth inhibition [%]: -5.95
//
MOLECULE: CN(C)P(=O)(Nc1ccc(Cl)cc1)Nc1ccc(Cl)cc1
growth inhibition [%]: 7.5

# per-item lookup of growth inhibition; items listed below
1. COc1ccc([B-]23OCC[N+]2(CNC(=O)c2ccccc2O)CCO3)cc1 (configuration not stated)
2. CCN(CC)CCn1[nH]c2c3ccc(=O)cc3sc3c(NCCN)ccc1c32
3. Cc1ccc(-c2cs/c(=N\N=C3/CSC(=O)N3Cc3ccccc3)n2-c2ccccc2)cc1

[17.6, -2.4, 40.4]

# per-item lookup of growth inhibition; items listed below
1. CC1=NN2C(=O)CSC2=NC(C)(C)C1
2. CN(C)C(=O)OC1CCCCC1
3. NNC(=O)CSc1ncnc2nc[nH]c12
4. CC(=O)Nc1ccc(OC(=O)Nc2ccc(C)c(NC(=O)Oc3ccc(NC(C)=O)cc3)c2)cc1

1. -9.95
2. -12.6
3. -0.5
4. 7.25

* * *

assay: NCI Yeast Anticancer Drug Screen. Data for the mlh1 rad18 strain (AID 175); conditions: S. cerevisiae mlh1 rad18 strain growth inhibition; at 50.0 µM
About 79,000 compounds went through this panel and 15% of them were active in at least one assay; those are over-represented in the sample as a whole. The source made the active and inactive calls. Rule as the data show it: active = growth inhibition above about 70%; inactive = the rest.
Field 'call' accepts 1 (active), 0 (inactive)

COMPOUND: COc1ccc2c(c1)OC[C@@H]1c3cc(NC(=O)c4ccccc4)c(OC)cc3N(S(=O)(=O)c3ccccc3)[C@H]21
CAT: 0

COMPOUND: COC(=O)c1ccc(Cl)c(Cl)c1Cl
CAT: 0

Which outcome was entered for the compound O=[N+]([O-])c1ccc(C2CC(c3ccccc3)=NN2c2ccccc2)cc1 (stereo not drawn) in this test?
0

Which outcome was entered for the compound Cc1nc(-c2ccc([N+](=O)[O-])cc2)cn2c1nc1ccccc12 in this test?
0

Which outcome was entered for the compound CCCCCCCCCCCCCC(=O)N(CCCCCCCCC)CC(O)C(O)C(OC1OC(CO)C(O)C(O)C1O)C(O)CO (stereo not drawn) in this test?
0

Which outcome was entered for the compound O=c1[nH]c2cc(Cl)c([N+](=O)[O-])cc2c2ccc(Cl)cc12 in this test?
0

Which outcome was entered for the compound CCOc1ccc(C(=O)OC)cc1 in this test?
0

Which outcome was entered for the compound CCCCCCCCCCCCCCCCCC(=O)OCC1OC(OC)C(NC(=O)N(CCCl)N=O)C(O)C1O (stereo not drawn) in this test?
0

Which outcome was entered for the compound Nc1nc2nc(-c3ccccc3)[nH]c2c(=O)[nH]1 in this test?
0

Which outcome was entered for the compound Cc1ccccc1/C=N\N=C\c1ccco1 in this test?
0

Which outcome was entered for the compound CCCCCCCCCCCCCCCCCC(=O)OC(C(O)C=O)C(O)C(O)CO (stereo not drawn) in this test?
0

Which outcome was entered for the compound CC1=NN(C(=O)c2ccc(Cl)cc2)C(=O)/C1=C/c1ccc(O)cc1 in this test?
0

Which outcome was entered for the compound O=c1c(-c2ccccc2)coc2ccccc12 in this test?
0

Which outcome was entered for the compound O=C(O)COc1cc([N+](=O)[O-])c(Cl)cc1Cl in this test?
0

Which outcome was entered for the compound COc1cccc(C2CC(C)(O)Oc3cc4c(cc32)OCO4)c1O (stereo not drawn) in this test?
0

Which outcome was entered for the compound COC1OC2COC(c3ccccc3)OC2C2C1N2C(=S)SC (stereo not drawn) in this test?
0

Which outcome was entered for the compound O=C(Nc1cccc(O)c1)c1ccccc1Cl in this test?
0

Which outcome was entered for the compound CCc1nc2c([nH]1)c(=O)n(C)c(=O)n2C in this test?
0

Which outcome was entered for the compound COC(=O)/C=C(/C(=O)OC)C1(C)c2cc(C(=O)OC)c(C(=O)OC)c(N)c2C(=N)N1c1ccccc1 (stereo not drawn) in this test?
0

Which outcome was entered for the compound CCc1c(O)nc(Nc2nc3ccccc3[nH]2)[nH]c1=O in this test?
0

Which outcome was entered for the compound O=c1c(O)c(-c2ccccc2)oc2cc(O)cc(O)c12 in this test?
0
